Listed next: entries and their corresponding pIC50.
# assayed-system: SF9 affinity purified rat FPT (Rattus norvegicus, UniProt Q02293+Q04631)
# Construct: made in house; host or cells: Sf9 insect cells
# assay-explanation: PFT (farnesyl protein transferase) inhibitory activity, radiolabeled farnesyl pyrophosphate / biotinyl peptide bead assay
# Assay type: biochemical
# run-conditions: average of two tests unless n is given in parentheses; read-out: FTase, IC50
pIC50: −log10 of the molar value.

| smiles | pIC50 |
| --- | --- |
| COc1ccccc1C=C1CCc2cc(OCCn3ccnc3)ccc2C1=O | 5.60 |
| O=c1cc(-c2ccccc2)oc2cc(OCCn3ccnc3)ccc12 | 5.03 |
| Cc1c(OCCn2ccnc2)ccc2c1CC/C(=C\c1cccs1)C2=O | 6.40 |
